These data points were gathered from ChEMBL document CHEMBL1152213.

test system: SARS-CoV; experiment: Antiviral activity against SARS-CoV Urbani in african green monkey Vero E6 cells assessed as cell viability after 48 hrs; format: functional, organism-based; conditions: Severe acute respiratory syndrome-related coronavirus
The label is condition met for IC50 below 200 nM and condition not met for IC50 equal to or exceeding 200 nM.

1) O=C(Oc1cncc(Cl)c1)c1ccc2c(ccn2S(=O)(=O)c2cccc([N+](=O)[O-])c2)c1; condition met
2) CC(=O)n1ccc2cc(C(=O)Oc3cncc(Cl)c3)ccc21; condition not met
3) O=C(Oc1cncc(Cl)c1)c1cccc2cc[nH]c12; condition met
4) Cc1ccc(S(=O)(=O)n2ccc3cc(C(=O)Oc4cncc(Cl)c4)ccc32)cc1; condition not met
5) CC(=O)n1ccc2c(C(=O)Oc3cncc(Cl)c3)cccc21; condition not met

###

tested on: SARS-CoV; test: Antiviral activity against SARS-CoV Urbani in african green monkey Vero E6 cells assessed as cell viability after 48 hrs; assay type: functional, organism-based; conditions: Severe acute respiratory syndrome-related coronavirus
observationType: IC50 (µM)

1. CC(=O)N1Cc2ccccc2C[C@H]1C(=O)Oc1cncc(Cl)c1; 0.14
2. O=C(Oc1cncc(Cl)c1)c1ccc2cc[nH]c2c1; 0.23
3. O=C(Oc1cncc(Cl)c1)c1ccc2[nH]ccc2c1; 0.31
